B1: glmS ribozyme (parent)
chain: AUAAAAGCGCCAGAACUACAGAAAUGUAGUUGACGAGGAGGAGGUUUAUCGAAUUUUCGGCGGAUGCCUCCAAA

- Variants of: B1
- assay_text: self-cleavage kobs at 2500 uM GlcN6P; higher = faster cleavage; RNA array
- experimental_conditions: with glucosamine-6-phosphate
Variants at the floor of the assay were thinned out.
I'd be grateful if you could share measured self-cleavage kobs at 2500 uM GlcN6P for these entries.
Report the value in s⁻¹ with no unit label.

I would be grateful if you could share the reported self-cleavage kobs at 2500 uM GlcN6P for C11U U56A C70U .
0.000485

Another variant to look at: U55G C68U
0.000382

Another variant to look at: G41C A42G
0.000107

Another variant to look at: C16A A33G A64G C71G
6.35e-05

Another variant to look at: U31G U65C
6.33e-05

Another variant to look at: A14G C16G A64G U69G
5.19e-05

Another variant to look at: A39G G40U
0.0015

Another variant to look at: A12G G32U C70U
0.000425

Another variant to look at: A14C C16A
6.73e-05

Another variant to look at: U31G C71A
0.000715

Another variant to look at: C11U C58G
3.13e-05

Another variant to look at: A15U U55C C70U
9.45e-05

Another variant to look at: C16A U45G
0.000144

Another variant to look at: C50G C58A C70U
0.000176

Another variant to look at: A14G U47C
0.0109

Another variant to look at: C10A U31A C58G C67A
0.000317

Another variant to look at: A12C U65C
0.000328

Another variant to look at: A39G G66U
0.00285

Another variant to look at: G40C U54C U56A
0.000505

Another variant to look at: A42G U69A
0.000947

Another variant to look at: G41A A53U
0.00063

Another variant to look at: A39U A53C U55C
0.00232

Another variant to look at: U45C U54A
0.00255

Another variant to look at: U31C G40U
0.000236

Another variant to look at: A12G U31C
4.42e-05

Another variant to look at: A36U U69G C71A
0.000556

Another variant to look at: U54G C67A
0.00208

Another variant to look at: G40A U47A A53U
0.000618

Another variant to look at: A39G G59A
7.4e-05

Another variant to look at: U31G G32A A64G
0.000581

Another variant to look at: U30G U55A C61G C71G
5.45e-05

Another variant to look at: A15U U55G
0.00204

Another variant to look at: C16A G66A
0.000633

Another variant to look at: U55A U65C
0.000471

Another variant to look at: A12U G40U U45G
0.00239

Another variant to look at: C50G U56G C61A
0.00021

Another variant to look at: U47G A52U
0.000169
